target: CHO-CHOP luciferase reporter, UPR apoptotic arm activation; experiment: activators of PERK-eIF2a-CHOP apoptotic UPR arm, SAR follow-up, cell-based, CHO-CHOP line, luminescence, set 2 (AID 588594)
Active and inactive are the calls of the source.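 Rule for the calls: active = mean EC50 of 20 µM or lower; inactive = the rest.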
Parameter call: string, one of active, inactive

Below, 8 compounds whose answers are already recorded.
compound | target system | category label
O=C(Nc1ccc(S(=O)(=O)N2CCC(Cl)CC2)cc1)c1ccc([N+](=O)[O-])o1 | CHO-CHOP luciferase reporter, UPR apoptotic arm activation | active
O=C(Nc1ccc(S(=O)(=O)N2CCC3(CCCCC3)CC2)cc1)c1ccc([N+](=O)[O-])o1 | CHO-CHOP luciferase reporter, UPR apoptotic arm activation | active
CC(C)(C)C1CCN(S(=O)(=O)c2ccc(NC(=O)c3ccc([N+](=O)[O-])o3)cc2)CC1 | CHO-CHOP luciferase reporter, UPR apoptotic arm activation | active
O=C(Nc1ccc(S(=O)(=O)N2CCC(F)CC2)cc1)c1ccc([N+](=O)[O-])o1 | CHO-CHOP luciferase reporter, UPR apoptotic arm activation | active
O=C(Nc1nc2c(F)c(F)ccc2s1)c1ccccn1 | CHO-CHOP luciferase reporter, UPR apoptotic arm activation | active
O=C(Nc1nc2c(F)ccc(F)c2s1)c1ccccn1 | CHO-CHOP luciferase reporter, UPR apoptotic arm activation | active
O=C(Nc1nc2cc(F)ccc2s1)c1ccccn1 | CHO-CHOP luciferase reporter, UPR apoptotic arm activation | active
O=C(Nc1nc2ccc(C(F)(F)F)cc2s1)c1ccccn1 | CHO-CHOP luciferase reporter, UPR apoptotic arm activation | active

Input line: Record lookup: outcome of this test for "O=C(Nc1nc2cc(F)c(F)cc2s1)c1ccccn1" ?
Output line: active

Input line: Record lookup: outcome of this test for "O=C(Nc1nc2ccc(Cl)cc2s1)c1ccccn1" ?
Output line: active

Input line: Record lookup: outcome of this test for "CC1(C)CCN(S(=O)(=O)c2ccc(NC(=O)c3cccc([N+](=O)[O-])c3)cc2)CC1" ?
Output line: inactive
